- target_or_system: Glutamate receptor 4 (Homo sapiens)
- Sequence (P48058 whole entry): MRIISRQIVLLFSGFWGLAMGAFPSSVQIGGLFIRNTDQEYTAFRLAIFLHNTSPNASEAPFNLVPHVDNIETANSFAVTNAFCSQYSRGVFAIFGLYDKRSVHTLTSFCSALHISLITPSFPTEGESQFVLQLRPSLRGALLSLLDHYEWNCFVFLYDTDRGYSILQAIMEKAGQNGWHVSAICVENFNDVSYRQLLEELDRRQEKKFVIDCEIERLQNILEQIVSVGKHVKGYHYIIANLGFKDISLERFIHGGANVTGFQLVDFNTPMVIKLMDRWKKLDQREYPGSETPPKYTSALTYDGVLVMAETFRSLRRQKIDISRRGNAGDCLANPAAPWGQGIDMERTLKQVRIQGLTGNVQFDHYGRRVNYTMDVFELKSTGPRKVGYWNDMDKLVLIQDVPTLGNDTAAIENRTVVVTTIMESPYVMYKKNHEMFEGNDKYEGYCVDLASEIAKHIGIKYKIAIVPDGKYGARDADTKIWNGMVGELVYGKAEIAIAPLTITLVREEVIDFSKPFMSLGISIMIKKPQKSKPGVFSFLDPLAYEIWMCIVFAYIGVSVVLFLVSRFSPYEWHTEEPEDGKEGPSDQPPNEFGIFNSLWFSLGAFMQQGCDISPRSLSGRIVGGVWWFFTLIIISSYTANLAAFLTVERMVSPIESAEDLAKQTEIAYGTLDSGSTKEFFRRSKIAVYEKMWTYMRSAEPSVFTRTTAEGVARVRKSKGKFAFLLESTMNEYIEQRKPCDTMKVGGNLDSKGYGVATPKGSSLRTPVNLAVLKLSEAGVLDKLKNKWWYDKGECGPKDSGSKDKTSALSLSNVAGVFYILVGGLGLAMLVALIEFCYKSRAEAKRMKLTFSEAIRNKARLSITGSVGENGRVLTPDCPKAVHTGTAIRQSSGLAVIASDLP
- assay_name: % potentiation of responses mediated by 100 uM L-glutamate in human transfected HEK293 cells expressing homomeric iGluR4 flip receptors at a dose of 3 uM.
- Assay type: functional, cell-based
// reported Potentiation per item
Return type: number; implicit unit %.

# count of solved cases: 6
CC(CNS(=O)(=O)C(C)C)c1ccccc1 (racemic) | 0
CC(C)S(=O)(=O)N[C@H]1CCC[C@H]1c1ccc(C#N)cc1 | 17
CC(C)S(=O)(=O)N[C@H]1CCC[C@H]1c1ccc(I)cc1 | 34
CC(C)S(=O)(=O)N[C@H]1CCC[C@H]1c1cc(F)cc(F)c1 | 5
CC(C)S(=O)(=O)N[C@@H]1CCC[C@@H]1c1ccc(F)cc1 (racemic) | 57
CC(C)S(=O)(=O)N[C@H]1CCC[C@@H]1c1ccccc1 (racemic) | 70

Any idea what its Potentiation is? The molecule is `CC(C)S(=O)(=O)N[C@@H]1CCC[C@H]1c1ccc(Br)cc1` 2
